Attribution: ChEMBL document CHEMBL1806391

experiment: Selectivity index, ratio of CC50 for human MT4 cells to EC50 for wild type Human immunodeficieny virus 1 3B infected in human MT4 cells; type: toxicity, cell-based; conditions: read-out: Ratio CC50/EC50
Give selectivity ratio for every item shown.

Use these answered entries as a reference point.
Cc1c(CN2CCCc3ccccc32)nc(SCc2ccc([N+](=O)[O-])cc2)[nH]c1=O; 41
COc1ccc(CSc2nc(CN3CCCc4ccccc43)c(C)c(=O)[nH]2)cc1; 93
Cc1c(CN2CCCc3ccccc32)nc(SCc2ccc(C#N)cc2)[nH]c1=O; 7
N#Cc1ccc(CSc2nc(CN3CCCc4ccccc43)cc(=O)[nH]2)cc1; ≤ 2
COc1ccc(CSc2nc(CN3CCCc4ccccc43)cc(=O)[nH]2)cc1; 7

Fill in selectivity ratio for each of the 2 compounds listed.
1. Cc1c(CN2CCCc3ccccc32)nc(SCC(=O)c2ccc(F)cc2)[nH]c1=O
2. Cc1c(CN2CCCc3ccccc32)nc(SCC(=O)c2ccc(C#N)cc2)[nH]c1=O

Completion:
34
6
